assayProtocol: Selectivity for horse serum BChE over electric eel AChE
property: Ratio IC50
Numbers only.

I'm hoping you can list Ratio IC50 for every compound here, please.
1. CCCC/N=c1/c2ccccc2nc2n1CCC2
2. c1ccc2/c(=N/CCCCCCC/N=c3\c4ccccc4nc4n3CCC4)n3c(nc2c1)CCC3

1: 1.7; 2: 0.9

====

tgt: Butyrylcholinesterase (Equus caballus)
Sequence (Q9N1N9 whole entry): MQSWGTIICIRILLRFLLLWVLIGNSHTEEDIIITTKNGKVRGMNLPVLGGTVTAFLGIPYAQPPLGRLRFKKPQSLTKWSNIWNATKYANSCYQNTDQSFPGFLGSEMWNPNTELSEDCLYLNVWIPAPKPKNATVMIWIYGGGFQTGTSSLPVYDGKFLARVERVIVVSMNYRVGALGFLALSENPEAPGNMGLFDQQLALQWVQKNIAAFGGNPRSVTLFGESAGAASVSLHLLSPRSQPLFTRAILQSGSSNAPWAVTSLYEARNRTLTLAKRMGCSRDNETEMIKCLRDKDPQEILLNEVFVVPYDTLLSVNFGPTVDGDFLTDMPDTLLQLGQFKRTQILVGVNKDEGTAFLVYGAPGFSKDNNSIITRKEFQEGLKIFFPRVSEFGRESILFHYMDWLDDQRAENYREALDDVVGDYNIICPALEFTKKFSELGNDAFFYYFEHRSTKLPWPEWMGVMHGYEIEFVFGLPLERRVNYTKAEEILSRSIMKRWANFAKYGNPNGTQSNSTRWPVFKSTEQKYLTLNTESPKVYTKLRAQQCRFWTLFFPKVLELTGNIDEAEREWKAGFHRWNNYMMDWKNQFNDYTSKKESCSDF
assayProtocol: Inhibition of horse serum BChE
conditionsUsed: read-out: IC50
property: IC50 (nM)
Numbers only, in nM.

Please review the following examples before continuing.
The recorded IC50 for Clc1ccc2/c(=N/CCCCCCC/N=c3\c4ccc(Cl)cc4nc4n3CCC4)n3c(nc2c1)CCC3 is 61

The recorded IC50 for c1ccc2/c(=N/CCCCCCC/N=c3\c4ccccc4nc4n3CCCCC4)n3c(nc2c1)CCCCC3 is 24

The recorded IC50 for c1ccc2/c(=N/CCCCCCCC/N=c3/c4ccccc4nc4n3CCC4)n3c(nc2c1)CCC3 is 4.8

The recorded IC50 for c1ccc2/c(=N/CCCCCCC/N=c3\c4ccccc4nc4n3CCCC4)n3c(nc2c1)CCCC3 is 8.5

The recorded IC50 for c1ccc2/c(=N/CCCCCCC/N=c3\c4ccccc4nc4n3CCC4)n3c(nc2c1)CCC3 is 88

I'm hoping you can list IC50 for every molecule here, please.
1. Clc1ccc2c(c1)N=C1CCCN1C2NCCCCCCCC/N=c1/c2ccc(Cl)cc2nc2n1CCC2 (stereo not drawn)
2. N=c1c2ccccc2nc2n1CCC2
3. CCCC/N=c1/c2ccccc2nc2n1CCC2

[45.4, 7200, 5500]

====

assayProtocol: Selectivity for horse serum BChE over electric eel AChE
property: Ratio IC50
One number for each entry.

Please review the following examples before continuing.
The recorded Ratio IC50 for c1ccc2/c(=N/CCCCCCC/N=c3\c4ccccc4nc4n3CCCC4)n3c(nc2c1)CCCC3 is 9

The recorded Ratio IC50 for c1ccc2/c(=N/CCCCCCCC/N=c3/c4ccccc4nc4n3CCCCC4)n3c(nc2c1)CCCCC3 is 98

The recorded Ratio IC50 for CCCC/N=c1/c2ccc(Cl)cc2nc2n1CCC2 is 1.7

The recorded Ratio IC50 for c1ccc2/c(=N/CCCCCCCC/N=c3/c4ccccc4nc4n3CCCCCC4)n3c(nc2c1)CCCCCC3 is 189

The recorded Ratio IC50 for c1ccc2/c(=N/CCCCCCCC/N=c3/c4ccccc4nc4n3CCC4)n3c(nc2c1)CCC3 is 12

The recorded Ratio IC50 for c1ccc2/c(=N/CCCCCCCC/N=c3/c4ccccc4nc4n3CCCC4)n3c(nc2c1)CCCC3 is 4.9

The recorded Ratio IC50 for c1ccc2/c(=N/CCCCCCC/N=c3\c4ccccc4nc4n3CCCCC4)n3c(nc2c1)CCCCC3 is 1.6

The recorded Ratio IC50 for N=c1c2ccccc2nc2n1CCCCCC2 is 4.9

I'm hoping you can list Ratio IC50 for every molecule here, please.
1. N=c1c2ccccc2nc2n1CCC2
2. Clc1ccc2c(c1)N=C1CCCN1C2NCCCCCCCC/N=c1/c2ccc(Cl)cc2nc2n1CCC2 (stereo not drawn)
3. c1ccc2/c(=N/CCCCCCC/N=c3\c4ccccc4nc4n3CCCCCC4)n3c(nc2c1)CCCCCC3
4. Clc1ccc2/c(=N/CCCCCCC/N=c3\c4ccc(Cl)cc4nc4n3CCC4)n3c(nc2c1)CCC3

[1.8, 1.1, 2.4, 1]

The recorded Ratio IC50 for CC(=O)/N=c1/c2ccccc2nc2n1CCC2 is 0.6
